target: T1, biotinylated goat anti-human kappa light chain; test: ELISA, positive control; further: test concentration or dose not given here
T1 construct: positive control of the ELISA
ENDPOINT: optical density (OD)

367_E05 (antibody, V domains shown, Group III) VH: EVQLLESGGGLVQPGGSLRLSCAASGFTFSSYGMNWVRQAPGKGLEWVAGINYNGGYTSYADSVKGRFTISRDNSKNTLYLQMNSLRAEDTAVYYCARGANWHDTHLDYWGQGTLVTVSS VL: DIQMTQSPSSLSASVGDRVTITCRASQSILSYLNWYQQKPGKAPKLLIYAATSRHSGVPSRFSGSGSGTDFTLTISSLQPEDFATYYCQQSYDSPLTFGGGTKVEIK :: 3.47
371_H05 (antibody, V domains shown, Group III) VH: EVQLLESGGGLVQPGGSLRLSCAASGFTFSSYGMNWVRQAPGKGLEWVSGINYNSGYKSYADSVKGRFTISRDNSKNTLYLQMNSLRAEDTAVYYCARGANWHDTALDYWGQGTLVTVSS VL: DIQMTQSPSSLSASVGDRVTITCRASQSIISYLNWYQQKPGKAPKLLIYAATSLASGVPSRFSGSGSGTDFTLTISSLQPEDFATYYCQQSYSLPLTFGGGTKVEIK :: 3.27
367_A10 (antibody, V domains shown, Group III) VH: EVQLLESGGGLVQPGGSLRLSCAASGFTFSSYGMNWVRQAPGKGLEWVAGINYNSGYTSYADSVKGRFTISRDNSKNTLYLQMNSLRAEDTAVYYCARGANWHDTHLDYWGQGTLVTVSS VL: DIQMTQSPSSLSASVGDRVTITCRASQSIITYVNWYQQKPGKAPKLLIYAATSLASGVPSRFSGSGSGTDFTLTISSLQPEDFATYYCQQSYDLPLTFGGGTKVEIK :: 3.39
367_C10 (antibody, V domains shown, Group III) VH: EVQLLESGGGLVQPGGSLRLSCAASGFTFDSYSMNWVRQAPGKGLEWVSGINYNGGYTSYADSVKGRFTISRDNSKNTLYLQMNSLRAEDTAVYYCARGANWHDTALDYWGQGTLVTVSS VL: DIQMTQSPSSLSASVGDRVTITCRASQSIVSYVNWYQQKPGKAPKLLIYAVTSRASGVPSRFSGSGSGTDFTLTISSLQPEDFATYYCQQSYETPLTFGGGTKVEIK :: 3.39
369_C05 (antibody, V domains shown, Group III) VH: EVQLLESGGGLVQPGGSLRLSCAASGFTFDSYSMNWVRQAPGKGLEWVAGINYNGGYTSYADSVKGRFTISRDNSKNTLYLQMNSLRAEDTAVYYCARGANWHDTALDYWGQGTLVTVSS VL: DIQMTQSPSSLSASVGDRVTITCRASQSISSYVNWYQQKPGKAPKLVIYATTSRHSGVPSRFSGSGSGTDFTLTISSLQPEDFATYYCQQSYNSPLTFGGGTKVEIK :: 3.02
